# Study System: Tubulin
# Method Notes: Inhibition of tubulin polymerization (unknown origin)
# Format: protein-complex assay, Homo sapiens
Here the recorded log10 of IC50 is given for each entry.
For clarity, the numbers are log10 values of IC50 expressed in nM.

Solved entries (count: 4):
# Compound, Recorded Value
records = [
    ("COc1cc(/C=C/C(=O)c2ccc(NC(=O)c3ccccc3CN3C(=O)c4ccccc4C3=O)cc2)cc(OC)c1OC", 3.37),
    ("COc1ccc2c(C)c(C(=O)c3cc(OC)c(OC)c(OC)c3)oc2c1", 2.79),
    ("COc1ccc(CN(C(=O)CC2CCC(C(=O)Nc3ccccc3N)CC2)c2cc(OC)c(OC)c(OC)c2)cc1O (stereo not given)", 3.56),
    ("COc1ccc2c(C(=O)c3cc(OC)c(OC)c(OO)c3)c[nH]c2c1", 3.45),
]

Next compound, log10 of IC50 to be filled in.
Tell me the measured log10 of IC50 of COc1ccc(-c2cccc(-c3cc(OC)c(OC)c(OC)c3)n2)cc1CCC(=O)NO , please.
2.07
